Hello, the source for this data is the Immune Epitope Database (IEDB), in case you need it.

target_system: HLA-A*69:01
measurement_notes: IEDB peptide-MHC binding, purified MHC/direct/fluorescence; filed as Kd, often an IC50 or EC50 that approximates it; bounds were set here for any values at or beyond the usual limits of such assays
reported_conditions: source organism: Entamoeba histolytica HM-1:IMSS
pKd: −log10 of the molar value.
pKd by entry:

seq_text	pKd
EINPFYQDV	8.12
NVGRILGYV	8.43
KQLEWKWGI	7.63

----------
target_system: HLA-B*27:03
measurement_notes: IEDB peptide-MHC binding, purified MHC/competitive/fluorescence; filed as Kd, often an IC50 or EC50 that approximates it; bounds were set here for any values at or beyond the usual limits of such assays
reported_conditions: source organism: Escherichia coli O139:H28 str. E24377A

seq_text	Kd
SIPFGLMSA	≥ 20 µM
